Molecular target: Potassium voltage-gated channel subfamily A member 1 (Rattus norvegicus) (UniProt P10499)
Sequence (P10499 whole entry, looked up): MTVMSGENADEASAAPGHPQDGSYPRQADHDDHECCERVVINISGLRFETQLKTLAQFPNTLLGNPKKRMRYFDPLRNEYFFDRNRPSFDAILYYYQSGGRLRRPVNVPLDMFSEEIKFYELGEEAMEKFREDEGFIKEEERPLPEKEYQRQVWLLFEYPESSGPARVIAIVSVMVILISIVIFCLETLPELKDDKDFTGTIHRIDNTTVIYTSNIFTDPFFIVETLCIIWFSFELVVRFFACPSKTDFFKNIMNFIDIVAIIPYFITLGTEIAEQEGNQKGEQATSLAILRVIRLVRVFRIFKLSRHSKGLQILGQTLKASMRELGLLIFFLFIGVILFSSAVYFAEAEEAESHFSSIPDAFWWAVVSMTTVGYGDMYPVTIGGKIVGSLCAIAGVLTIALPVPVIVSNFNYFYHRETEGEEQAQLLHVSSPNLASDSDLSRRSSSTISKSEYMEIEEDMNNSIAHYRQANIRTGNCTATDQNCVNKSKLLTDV
Test: Activation of KV1.1 expressed in Xenopus laevis oocytes coexpressing Kvbeta1 assessed as increase in steady state current normalized to initial inactivating current by electrophysiology method
EXPERIMENTAL_READOUT: EC50 (µM)
# value in µM; strip the unit string

Q) Note down EC50 recorded for `C[C@]12CCC(=O)C=C1CC[C@@H]1[C@@H]2C(=O)C[C@@]2(C)[C@H]1CC[C@]2(O)C(=O)CO`
A) 46

* * *

Experiment: Induction of dissociation of KV1.1 T1 domain/rat Kvbeta2 complex by solid phase binding assay
EXPERIMENTAL_READOUT: EC50 (µM)
# value in µM; strip the unit string

Q) Note down EC50 recorded for C[C@]12CCC(=O)C=C1CC[C@@H]1[C@@H]2C(=O)C[C@@]2(C)[C@H]1CC[C@]2(O)C(=O)CO [CORTISONE]
A) 68
